For each entry below, report its interaction score value.
- Target desc: T1, 4H968-bA
- T1 chain: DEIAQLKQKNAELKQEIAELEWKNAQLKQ
- Method notes: two-hybrid library CCNG1;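 also: natural log of median RNA to DNA barcode read ratio; higher means stronger binding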
Answers are plain numbers.

Example cases with answers are listed next.
binder="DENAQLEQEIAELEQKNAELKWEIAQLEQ [4H1081-bA]" value_reported=-1.8
binder="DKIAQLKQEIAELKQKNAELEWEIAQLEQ [4H2673-bA]" value_reported=-0.811
binder="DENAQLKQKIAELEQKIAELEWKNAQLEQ [4H1831-bA]" value_reported=-0.46

Look at each binder and report its interaction score.
1. DEIAQLKQKIAELEQEIAELKWENAQLKQ [4H780-bA]
2. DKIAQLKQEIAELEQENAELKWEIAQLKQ [4H2586-bA]
3. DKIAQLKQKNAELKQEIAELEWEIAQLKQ [4H3010-bA]
4. DEIAQLKQKNAELKQEIAELEWKNAQLKQ [4H968-bA]

1: -1.3; 2: -1.91; 3: -0.854; 4: -1.46
